Source: patent US20260207563A1

- Measurement Target: heteromeric KV7.2/KV7.3 channels (KCNQ2, KCNQ3) (Homo sapiens, UniProt O43525+O43526)
- Construct: expressed in transfected cells; host or cells: CHO-K1
- Measurement Notes: Automated patch-clamp (Sophion Qube 384) potency assay against KV7.2/KV7.3 channels
- Type: cell-based
- Condition Details: CHO-K1/Kv7.2/Kv7.3 cells; maximal shift in the Vhalf from the top of the curve
Measurement Name: Kv7.2/7.3 ΔV1/2 (mV)
Write it as a number; the unit mV goes unstated.

{"Compound": "O=C(NCc1ccnc(OCC(F)(F)F)c1)N[C@@H]1CCN(CC(F)(F)F)C1", "Kv7.2/7.3 ΔV1/2 (mV)": 30.24}
{"Compound": "O=C(NCc1ccnc(OCC(F)(F)F)c1)NC1CSc2ccccc2C1 (stereo not drawn)", "Kv7.2/7.3 ΔV1/2 (mV)": 30.8}

Could you now consider this next compound?
Inquiry: Dear colleague, I am looking for the recorded Kv7.2/7.3 ΔV1/2 of the following compound: C#CCOc1cc(CNC(=O)N[C@@H]2CCCc3c(F)cccc32)ccn1
Reply text: 29.44
